- experimental-system: Mitogen-activated protein kinase 14 (Homo sapiens)
- Sequence (Q16539 whole entry): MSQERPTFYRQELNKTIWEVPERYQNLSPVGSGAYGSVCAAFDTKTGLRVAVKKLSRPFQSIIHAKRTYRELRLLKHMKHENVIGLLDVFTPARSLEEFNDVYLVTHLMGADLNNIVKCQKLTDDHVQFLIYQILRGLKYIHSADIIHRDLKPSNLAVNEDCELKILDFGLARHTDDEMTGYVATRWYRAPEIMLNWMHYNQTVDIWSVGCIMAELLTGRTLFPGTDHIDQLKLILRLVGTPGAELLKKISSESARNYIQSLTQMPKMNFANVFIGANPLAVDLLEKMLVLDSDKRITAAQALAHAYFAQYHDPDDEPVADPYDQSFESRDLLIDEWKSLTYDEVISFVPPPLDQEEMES
- experimental-details: Inhibition of p38alpha in human PBMC assessed as inhibition of LPS-induced TNFalpha production after 16 to 18 hrs by ELISA
This section presents compounds with their documented IC50 values.
readout-name: IC50

>>> print(df.to_string())
                         compound_structure                       experimental_system  assay_result
0  COc1ccc(-c2c(=O)ncn3nc(Sc4ccccc4)ccc23)cc1  Mitogen-activated protein kinase 14 (Homo sapiens)       > 20 µM
1  O=c1ncn2nc(Sc3ccccc3)ccc2c1-c1ccc(Cl)c(Cl)c1  Mitogen-activated protein kinase 14 (Homo sapiens)       > 20 µM
2  COc1ccccc1-c1c(=O)ncn2nc(Sc3ccccc3)ccc12  Mitogen-activated protein kinase 14 (Homo sapiens)       > 20 µM
